Property: AC50; scope: individual compounds
system_name: wild type human POLγ (POLγA:WT) (Homo sapiens, UniProt P54098)
Sequence (P54098 whole entry): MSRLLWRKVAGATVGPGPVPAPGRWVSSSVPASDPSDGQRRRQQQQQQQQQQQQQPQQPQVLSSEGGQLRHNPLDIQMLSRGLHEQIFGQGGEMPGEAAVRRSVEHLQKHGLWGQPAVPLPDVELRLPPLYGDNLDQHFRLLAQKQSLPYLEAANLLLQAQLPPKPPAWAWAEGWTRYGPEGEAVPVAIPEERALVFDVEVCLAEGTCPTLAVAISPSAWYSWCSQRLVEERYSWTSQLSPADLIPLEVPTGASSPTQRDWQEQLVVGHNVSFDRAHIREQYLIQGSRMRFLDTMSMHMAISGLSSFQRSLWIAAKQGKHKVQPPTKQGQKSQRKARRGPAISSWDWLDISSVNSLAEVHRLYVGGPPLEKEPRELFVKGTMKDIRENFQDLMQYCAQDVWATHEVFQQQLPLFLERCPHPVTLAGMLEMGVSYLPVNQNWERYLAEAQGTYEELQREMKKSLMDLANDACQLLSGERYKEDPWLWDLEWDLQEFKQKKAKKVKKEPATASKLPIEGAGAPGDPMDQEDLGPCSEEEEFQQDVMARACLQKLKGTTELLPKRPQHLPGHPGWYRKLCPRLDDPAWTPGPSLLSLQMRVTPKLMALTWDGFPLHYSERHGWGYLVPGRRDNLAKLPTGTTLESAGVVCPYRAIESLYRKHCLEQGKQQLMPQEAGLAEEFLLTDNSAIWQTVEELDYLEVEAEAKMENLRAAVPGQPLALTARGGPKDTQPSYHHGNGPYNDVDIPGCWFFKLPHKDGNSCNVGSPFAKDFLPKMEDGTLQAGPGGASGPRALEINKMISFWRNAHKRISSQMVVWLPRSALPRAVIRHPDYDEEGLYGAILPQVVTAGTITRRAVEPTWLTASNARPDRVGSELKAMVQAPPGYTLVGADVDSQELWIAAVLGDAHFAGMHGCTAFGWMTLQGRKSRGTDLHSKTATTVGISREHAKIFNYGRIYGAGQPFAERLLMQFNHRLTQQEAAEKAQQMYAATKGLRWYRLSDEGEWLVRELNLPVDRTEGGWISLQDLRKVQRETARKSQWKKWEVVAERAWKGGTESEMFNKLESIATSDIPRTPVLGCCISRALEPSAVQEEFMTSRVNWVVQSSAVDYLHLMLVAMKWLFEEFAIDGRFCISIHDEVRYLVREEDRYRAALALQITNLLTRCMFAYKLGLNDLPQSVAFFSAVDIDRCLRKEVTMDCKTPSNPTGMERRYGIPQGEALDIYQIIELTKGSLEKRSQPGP
Sequence (Q9UHN1 whole entry partner): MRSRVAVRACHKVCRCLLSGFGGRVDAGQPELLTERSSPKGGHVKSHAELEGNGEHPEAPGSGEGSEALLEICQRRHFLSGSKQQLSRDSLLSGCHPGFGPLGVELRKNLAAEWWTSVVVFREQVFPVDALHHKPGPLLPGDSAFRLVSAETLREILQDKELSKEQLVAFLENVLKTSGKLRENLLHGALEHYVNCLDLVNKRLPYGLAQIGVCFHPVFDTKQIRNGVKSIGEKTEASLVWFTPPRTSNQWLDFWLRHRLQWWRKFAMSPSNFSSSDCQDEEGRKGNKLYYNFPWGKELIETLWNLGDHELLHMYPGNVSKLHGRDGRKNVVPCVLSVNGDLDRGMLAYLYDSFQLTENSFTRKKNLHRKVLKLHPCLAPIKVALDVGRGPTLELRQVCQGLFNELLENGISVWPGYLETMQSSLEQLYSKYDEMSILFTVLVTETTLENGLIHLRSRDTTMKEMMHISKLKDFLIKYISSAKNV
assay: DNA polymerization assay, wild type POLγ
Format: biochemical
applied_conditions: 100 μM dNTP, read-out: WT AC50 (μM) at 100 μM

// worked examples, AC50 included
Q) Write down the reported AC50 (system: wild type human POLγ (POLγA:WT) (Homo sapiens, UniProt P54098)) of Cc1cc(S(=O)(=O)Nc2cccc(-c3ncc(C#N)s3)c2)c(C)cc1Cl [Example 96]
A) > 10 µM

Q) Tell me its AC50 on wild type human POLγ (POLγA:WT) (Homo sapiens, UniProt P54098): Cc1cc(S(=O)(=O)Nc2csc(-c3ccncc3)n2)c(C)cc1Cl [Example 176]
A) > 100 µM

Q) Answer with AC50 of Cc1cc(S(=O)(=O)Nc2cccc(-c3ccn(C)n3)c2)c(C)cc1Cl [Example 18] measured for wild type human POLγ (POLγA:WT) (Homo sapiens, UniProt P54098).
A) 1 µM

Q) Recall the reported AC50 of CNC(=O)c1cnc(-c2cccc(NS(=O)(=O)c3cc(C)c(Cl)cc3C)c2)s1 [Example 93] on wild type human POLγ (POLγA:WT) (Homo sapiens, UniProt P54098) and write it down.
A) 3 µM

Q) # return AC50 of Cc1ccc(C)c(S(=O)(=O)Nc2cccc(C(=O)N3CCCC[C@H]3C)c2)c1 [Example 5] (system: wild type human POLγ (POLγA:WT) (Homo sapiens, UniProt P54098))
A) 5 µM

Q) Return reported AC50 for target or system wild type human POLγ (POLγA:WT) (Homo sapiens, UniProt P54098), item Cc1cc(S(=O)(=O)Nc2csc(-c3ccn(C)n3)n2)c(C)cc1Cl [Example 181] .
A) > 10 µM

Q) Give the observed AC50 of Cc1cc(S(=O)(=O)Nc2cccc(C(=O)N(C)C(C)CO)c2)c(C)cc1Cl (single isomer, unassigned) [Example 14] for wild type human POLγ (POLγA:WT) (Homo sapiens, UniProt P54098).
A) > 100 µM

Please look at the following compound next.
Q) # lookup: wild type human POLγ (POLγA:WT) (Homo sapiens, UniProt P54098) AC50, key = Cc1cc(S(=O)(=O)Nc2csc(-c3ccccc3)n2)c(Cl)cc1F [Example 136]
A) 0.8 µM

---

Measured AC50, listed per entry for reference.
system_name: POLγA:G848S (Homo sapiens, UniProt P54098, G848S)
Sequence (P54098 whole entry G848S): as the sequence (P54098 whole entry) above, with G848S counted along it
Sequence (Q9UHN1 whole entry partner): as the sequence (Q9UHN1 whole entry partner) above
assay: DNA polymerization assay, POLγA:G848S mutant
Format: biochemical
applied_conditions: stimulation of polymerase activity, primed M13mp18 ssDNA, 37° C. 2 hours; read-out: G848S AC50

Illustrative cases are given below, each with its answer.
Q) # return recorded AC50 for entry Cc1cc(S(=O)(=O)Nc2csc(C(=O)N(CC(N)=O)C3CCCC3)n2)c(C)cc1Cl [Example 177]
A) > 100 µM

Q) Identify measured AC50 corresponding to Cc1cnc(-c2ccccc2NS(=O)(=O)c2cc(C)c(Cl)cc2C)s1 [Example 79]
A) > 10 µM

Q) Please give measured AC50 of the following entry: Cc1cc(S(=O)(=O)Nc2csc(-c3ccccc3)n2)c(F)cc1Cl [Example 146]
A) > 100 µM

Q) Supply AC50 value. Item: Cc1cc(S(=O)(=O)Nc2cccc(C(=O)N3CCN(CCO)CC3)c2)c(C)cc1Cl [Example 55]
A) > 100 µM

Now for the compound whose AC50 we want.
Q) Please give measured AC50 of the following entry: Cc1ccc(C)c(S(=O)(=O)Nc2cncc(C(=O)N3CCOCC3)c2)c1 [Example 38]
A) > 100 µM
